- MEASUREMENT TARGET: TvHex (chitinolytic β-GlcNAcase)
- TEST PROTOCOL: Inhibition of TvHex
- RECORDED CONDITIONS: read-out: Ki for TvHex; pNP-β-GlcNAc, pH 6.0
QUANTITY MEASURED: Ki (µM)
Response body: numeric value in µM, unit text excluded.

Exercise: Consider the compound shown here: Cc1nnc(CNCCN2C(=O)c3cccc4c(N(C)C)ccc(c34)C2=O)s1 What is its recorded Ki?
Key: 25

====

- MEASUREMENT TARGET: HsHex (human glycoconjugate-lytic β-GlcNAcase) (Homo sapiens, UniProt P07686)
- Sequence (P07686 122-311 limits assumed): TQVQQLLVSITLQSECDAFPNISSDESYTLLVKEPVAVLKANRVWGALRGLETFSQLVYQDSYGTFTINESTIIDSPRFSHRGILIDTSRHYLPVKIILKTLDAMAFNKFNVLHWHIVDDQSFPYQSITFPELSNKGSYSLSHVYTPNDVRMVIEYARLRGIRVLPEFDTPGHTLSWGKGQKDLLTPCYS
- Sequence (P07686 315-556 limits assumed): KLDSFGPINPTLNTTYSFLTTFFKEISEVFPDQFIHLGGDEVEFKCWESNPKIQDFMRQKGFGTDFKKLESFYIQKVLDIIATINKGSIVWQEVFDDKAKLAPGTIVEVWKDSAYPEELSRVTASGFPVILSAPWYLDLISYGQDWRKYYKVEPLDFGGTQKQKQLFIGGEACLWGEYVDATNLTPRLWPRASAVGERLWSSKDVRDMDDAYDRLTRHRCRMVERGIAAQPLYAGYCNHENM
QUANTITY MEASURED: Ki (nM)
Response body: numeric value in nM, unit text excluded.

Exercise: Consider the molecule shown here: Cc1nnc(CNCCN2C(=O)c3cccc4cccc(c34)C2=O)s1 [Q1] What is its recorded Ki?
Key: 2150

====

- MEASUREMENT TARGET: OfHex1 (W490A) (Ostrinia furnacalis, UniProt Q06GJ0, W490A)
- TEST PROTOCOL: Inhibition of mutant OfHex1-W490A
QUANTITY MEASURED: Ki

Exercise: What value of Ki on OfHex1 (W490A) (Ostrinia furnacalis, UniProt Q06GJ0, W490A) does Cc1nnc(CNCCN2C(=O)c3cccc4c(N(C)C)ccc(c34)C2=O)s1 have?
Key: > 100 µM

Exercise: // query: Cc1nnc(CNCCN2C(=O)c3cccc4cccc(c34)C2=O)s1
Key: > 100 µM

====

- MEASUREMENT TARGET: SpHex (chitinolytic β-GlcNAcase) (Streptomyces plicatus, UniProt O85361)
- Sequence (O85361 1-506): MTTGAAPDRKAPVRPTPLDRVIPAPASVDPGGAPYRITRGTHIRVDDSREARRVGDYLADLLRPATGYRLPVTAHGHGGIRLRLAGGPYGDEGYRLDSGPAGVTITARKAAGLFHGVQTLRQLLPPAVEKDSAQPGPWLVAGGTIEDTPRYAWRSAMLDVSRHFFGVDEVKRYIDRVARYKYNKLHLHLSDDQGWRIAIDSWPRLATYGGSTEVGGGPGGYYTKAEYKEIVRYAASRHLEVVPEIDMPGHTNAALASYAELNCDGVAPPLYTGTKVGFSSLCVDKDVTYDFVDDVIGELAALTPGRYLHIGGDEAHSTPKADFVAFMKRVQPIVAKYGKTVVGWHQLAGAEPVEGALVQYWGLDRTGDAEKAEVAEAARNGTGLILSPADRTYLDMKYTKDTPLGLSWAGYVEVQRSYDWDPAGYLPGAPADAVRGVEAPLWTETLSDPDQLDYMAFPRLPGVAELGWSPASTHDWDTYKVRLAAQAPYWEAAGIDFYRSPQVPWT
QUANTITY MEASURED: pKi
Recall that pKi is obtained by taking minus log10 of the concentration measured in molar.

Exercise: Consider the compound shown here: Cc1nnc(CNCCN2C(=O)c3cccc4c(N(C)C)ccc(c34)C2=O)s1 [Q2] What is its recorded pKi?
Key: 4.13

====

So I've got a bunch of compounds here, and I need their pKi values.
- MEASUREMENT TARGET: OfHex1 (chitinolytic β-GlcNAcase) (Ostrinia furnacalis, UniProt Q06GJ0)
- Sequence (Q06GJ0 23-594): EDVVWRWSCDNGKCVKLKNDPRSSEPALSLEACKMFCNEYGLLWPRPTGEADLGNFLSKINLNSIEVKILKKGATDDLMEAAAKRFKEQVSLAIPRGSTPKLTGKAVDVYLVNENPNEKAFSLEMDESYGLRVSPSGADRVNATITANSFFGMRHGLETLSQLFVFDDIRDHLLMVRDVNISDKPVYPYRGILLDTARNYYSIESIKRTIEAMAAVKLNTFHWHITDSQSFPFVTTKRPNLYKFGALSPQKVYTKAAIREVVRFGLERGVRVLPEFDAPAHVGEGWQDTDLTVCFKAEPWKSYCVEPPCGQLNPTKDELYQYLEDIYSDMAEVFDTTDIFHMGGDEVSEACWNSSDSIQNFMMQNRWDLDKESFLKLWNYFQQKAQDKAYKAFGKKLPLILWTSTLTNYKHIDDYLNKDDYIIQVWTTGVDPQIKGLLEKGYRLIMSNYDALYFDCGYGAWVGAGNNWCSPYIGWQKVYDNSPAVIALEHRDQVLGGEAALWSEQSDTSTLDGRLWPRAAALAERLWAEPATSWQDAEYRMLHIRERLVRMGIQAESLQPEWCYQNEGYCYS
Recall that pKi is obtained by taking minus log10 of the concentration measured in molar.

Exercise: Consider the compound shown here: Cc1nnc(CNCCN2C(=O)c3cccc4cccc(c34)C2=O)s1 [Q1] What is its recorded pKi?
Key: 5.37

Exercise: // query: Cc1nnc(CNCCN2C(=O)c3cccc4c(N(C)C)ccc(c34)C2=O)s1 [Q2]
Key: 6.51
